Experiment: protein stability index of a GFP-peptide fusion (yeast GPS) (PSI 1-4); higher = more stable; sorted into four equal gates, so the index is relative within each strain
Settings: doa10∆
So basically every entry gets a class from its protein stability index, ranges being 1 = under 2, 2 = from 2 up to 3, 3 = 3 and over

Query: # classify by protein stability index band: QQQIIKIRITLTSTKVK [RPS20]
Result: 1

Query: What do you have for HVLKKNPLKNKQVLLRL [RPL4A] ?
Result: 1

Query: What do you have for EVTAGEAQDEASLQQQQ [SNF6] ?
Result: 3

Query: What do you have for NQILMSVNFFVSLLKKN [RPL1A] ?
Result: 1

Query: What do you have for SASLHTRSLKYGKLRNG [RRP4] ?
Result: 1

Query: What do you have for IFRGSLIGCIPYSKNAV [YDL088C/ASM4] ?
Result: 2

Query: What do you have for RPQKLRASLVPGTVLIL [RPL6A] ?
Result: 2

Query: What do you have for GKEFEARNLIEDEDDGE [RPC53] ?
Result: 3

Query: What do you have for ANAAKRAEAKAQGVAVQ [RPL21A] ?
Result: 2

Query: What do you have for AKLNYKNLNPASSSPSS [ECM29] ?
Result: 3

Query: What do you have for TLELESFLEGSKALNSI [RGR1] ?
Result: 2

Query: What do you have for QGRRLGESIMSEEPTDF [MCD1] ?
Result: 3

Query: What do you have for NQASTSKRVYKILSPTM [CDC53] ?
Result: 2

Query: What do you have for GLGETSGDNHTQQSHEQ [RPT4] ?
Result: 3

Query: What do you have for AWGALITTFVKRSTVPL [YML103C/NUP188] ?
Result: 2

Query: What do you have for TNAKLPNVDLVTALEVL [RGR1] ?
Result: 2

Query: What do you have for ELSNELSRLSTASKIIV [MED1] ?
Result: 2

Query: What do you have for IELKTDWVRFLALALGI [RPN1] ?
Result: 1

Query: What do you have for KVNPNIMNMIENVEKKE [SMC2] ?
Result: 2

Query: What do you have for PDVLLSRVINVVRAASS [RRP6] ?
Result: 1

Query: What do you have for LDALVDCENFFNYVQEC [YJL039C/NUP192] ?
Result: 3

Query: What do you have for TSPIDIREKVAKQALDL [SNF2] ?
Result: 3

Query: What do you have for LIITRKAFKNNSSKYYI [SMC4] ?
Result: 2

Query: What do you have for TVAVMSYSGYDIEDALV [RET1] ?
Result: 2
